Assay: soluble on expression in E. coli; label from the status in PepcDB or PDB records
measure: soluble on expression in E. coli

[[record]]
sequence = "MAHHHHHHMRVYYSNLVKDKRKCLNFIKVEKKYGGTSLLTKIGQAFNQEHLRNMKTKLDDVKKSSSPFFGTSMEGSNNIFKNFIDIFRKNNIIKDKLKINDSEKKEKEFYMFYVNSLMKYEGIFTYGKFQAFLKDLCDYFNIFSIKYKYKKKMNPQFEKLKKQYEVLNSFLPYELDNDDYKIFTQESKKYIAQAANVDIKFIDELLLFHDTLKTDRTWFYRRKVLKRNIPESFEAREMEAPYDRPVPKTYNYNIKEHSLEYDEFMKKHGRKLKFKQWNSKQHPWFRKNTSGRNRWATRPYTKQFPYLYYSRVPSHMYLSKNKPKISH"
measure = "soluble on expression in E. coli"
endpoint_result = "not soluble"

[[record]]
sequence = "MGSDKIHHHHHHMQGTQQSLPLAVVRGQAMTEMPQDLFIPPEALEVFLESFEGPLDLLLYLIRKQKLDVVDLPISQITAQYLEYIAMLTQARIELASDYLVMAATLAEIKSRLLLPRMVAEDEVEEDPRAQLIRQLKAYEVIKEASQKIDDLPRLERDVFQATAAPSPNIKPLVIPPDVSLFEIARAFGDVLKRIDAYEDHHVKREQLSTRERMSQILAMLNSEDFTPFERLFSVEEGRAGVVVTFLALMELVKELLVELYQTEPFSTIYVKAY"
measure = "soluble on expression in E. coli"
endpoint_result = "not soluble"

[[record]]
sequence = "MESITQIYRIGYGPSSSHTIGPRRAAEMFLDRNPRATSFRVTLYGSLAATGKGHLTDAAILAVLEAKAPTEIVWKPEIFQNFHPNGMLFESFDKEGKQLDDWLIYSIGGGVLANEHFNEQ"
measure = "soluble on expression in E. coli"
endpoint_result = "not soluble"

